Where do these numbers come from? They come from patent US12187709B2.

Reported fold-selectivity (Cbl-b over C-cbl) is given for each of the following compounds.
assayed.target: Cbl-b (Homo sapiens (Human))
Sequence (Q13191 40-426): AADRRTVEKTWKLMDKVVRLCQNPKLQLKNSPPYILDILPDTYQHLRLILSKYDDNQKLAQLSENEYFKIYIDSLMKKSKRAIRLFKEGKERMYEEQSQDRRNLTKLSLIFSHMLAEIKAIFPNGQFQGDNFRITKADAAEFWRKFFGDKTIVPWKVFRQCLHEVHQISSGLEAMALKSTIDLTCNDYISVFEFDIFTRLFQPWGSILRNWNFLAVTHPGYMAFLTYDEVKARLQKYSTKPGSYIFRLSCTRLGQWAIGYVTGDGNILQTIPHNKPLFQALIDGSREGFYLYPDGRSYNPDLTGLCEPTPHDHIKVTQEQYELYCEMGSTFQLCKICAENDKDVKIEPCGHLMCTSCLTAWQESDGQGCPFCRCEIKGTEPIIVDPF
assay.summary: Cbl-b LCK Ub TR-FRET assay (Cbl-b Lck HTRF)
Type: biochemical
test.context: ratio C-cbl Lck HTRF IC50 / Cbl-b Lck HTRF IC50
Just the number in x, nothing appended.

- compound: "Cn1cnnc1[C@]1(c2cccc(N3Cc4c(cc(CNC5(C)CCC5)cc4C(F)(F)F)C3=O)c2)C[C@@](O)(C(F)(F)F)C1 [Compound 120]"
  assayed.target: "Cbl-b (Homo sapiens (Human))"
  fold-selectivity (Cbl-b over C-cbl) (x): 4.8
- compound: "Cn1cnnc1[C@]1(c2cccc(N3Cc4c(cc(CNC5(C)CCC5)cc4C(F)(F)F)C3=O)c2)C[C@@H](OCF)C1 [Compound 371]"
  assayed.target: "Cbl-b (Homo sapiens (Human))"
  fold-selectivity (Cbl-b over C-cbl) (x): 5.0
- compound: "Cn1cnnc1[C@@H](c1cccc(N2Cc3c(cc(CNC4(C)CCC4)cc3C(F)(F)F)C2=O)c1)C1CCCC1 [Compound 256]"
  assayed.target: "Cbl-b (Homo sapiens (Human))"
  fold-selectivity (Cbl-b over C-cbl) (x): 6.5

Lookup: Returns the measured fold-selectivity (Cbl-b over C-cbl) for the input compound. Input: Cn1cnnc1[C@](O)(c1cccc(N2Cc3c(cc(CNC4(C)CCC4)cc3C(F)(F)F)C2=O)c1)C(F)(F)F [Compound 307]
Found: 1.5

Lookup: // same read-out, input: CC[C@@H](NC1(C)CCC1)c1cc2c(c(C(F)(F)F)c1)CN(c1cccc([C@@H](c3nncn3C)C3COC3)c1)C2=O (single isomer, unassigned) [Compound 316]
Found: 11

Lookup: // same read-out, input: Cn1cnnc1[C@@H](c1cccc(N2Cc3c(cc(CNC4(C)CCC4)cc3C(F)(F)F)C2=O)c1)[C@@H]1CCOC1 [Compound 168]
Found: 1.5
